These data points were gathered from patent US10280163B2.

Biological target: cellular IDO1 in HeLa cells (Homo sapiens)
Construct: endogenous in cells; host or cells: HeLa cells (American Type Tissue Culture Collection), induced with human recombinant IFN-γ
Experiment: HeLa cell-based IDO1 Kyn (kynurenine) production assay
Details: Table 1, 5-substituted imidazo[1,5-a]pyridines, IFN-γ 100 ng/mL, 48 hours
pEC50: −log10 of the molar value.
endpoint.label: pEC50

Some solved entries appear below for comparison.
compound: O[C@H](c1c(C2CC2)ccc2cncn12)C1CC2CCC1C2 (stereo partly shown) [Example A162a]
endpoint.label: pEC50
readout.value: 8.06

compound: OC1CCCCC1C(O)c1c(C2CC2)ccc2cncn12 (stereo not shown)
endpoint.label: pEC50
readout.value: 5.50

compound: OC(c1c(Cl)c(Cl)cc2cncn12)C1CCCCC1 (single isomer, unassigned) [Example A143b]
endpoint.label: pEC50
readout.value: 5.21

compound: OC1CCC(C(O)c2c(C3CC3)ccc3cncn23)CC1 (single isomer, unassigned) [Example A142b]
endpoint.label: pEC50
readout.value: 6.51

compound: OC(c1c(C(F)(F)F)ccc2cncn12)C1CCCCC1 (stereo not shown)
endpoint.label: pEC50
readout.value: 6.54

I. OC(CC1CCCCC1)c1c(Cl)c(Cl)cc2cncn12 (stereo not shown) [Example A144]
II. O[C@@H](c1c(C2CC2)ccc2cncn12)C1CC2CCC1C2 (stereo partly shown) [Example A162b]
Which value of pEC50 is numerically greater: that of I or that of II ? Respond with the label that goes with your answer.
I
(I: 5.91, II: 5.22)

----------
Target: Recombinant IDO1 (Homo sapiens)
Construct: His tag (N); made in house; host or cells: E. coli
Experiment: IDO1 enzymatic assay
Type: biochemical
Settings: Table 2, 8-substituted imidazo[1,5-a]pyridines; 50 nM IDO1, 1.3 mM D-tryptophan; read-out: Enzyme IC50 (nM) IDO1
endpoint.label: IC50 (nM)

Solved entries:
compound: CC(C)c1ccn2cncc2c1C(O)C1CCCCC1 (stereo not drawn) [Example B106]
assayed.target: Recombinant IDO1 (Homo sapiens)
display.unit: nM
IC50: 138

compound: OC(CC1CCCCC1)c1cccn2cncc12 (stereo not drawn)
assayed.target: Recombinant IDO1 (Homo sapiens)
display.unit: nM
IC50: 330

compound: OC(CC12CC3CC(CC(C3)C1)C2)c1c(C2CC2)ccn2cncc12 (stereo not drawn)
assayed.target: Recombinant IDO1 (Homo sapiens)
display.unit: nM
IC50: 280

1. OC(c1c(C2CC2)ccn2cncc12)C1CC2CC2C1 (stereo not drawn)
2. CC(C)c1ccn2cncc2c1C(O)[C@H]1CC[C@@H](O)CC1 (single isomer, unassigned) [Example B121d]
Two entries are listed, 1 and 2 . Which one carries the higher IC50? Give the label of your selection.
2

a. OC(c1c(C2CC2)ccn2cncc12)C1CC2C=CC1CC2 (stereo not drawn)
b. Cc1ccn2cncc2c1C(O)C1CCCCC1 (single isomer, unassigned) [Example B102a]
Larger number for IC50: a , or b ? Lab note: record the label of whichever item you select.
a
(a: 260 nM, b: 15 nM)

P. NS(=O)(=O)N1CCCC(C(O)c2c(C3CC3)ccn3cncc23)C1 (single isomer, unassigned) [Example B135a]
Q. OC(c1cccn2cncc12)C1CCCC1 (stereo not drawn)
Select the item with the higher value of IC50 from the options P and Q listed. Return value: the label identifying the chosen record.
Q

P. OC(c1c(C2CC2)ccn2cncc12)C1C2CC3CC(C2)CC1C3 (stereo not drawn)
Q. OC(c1c(C2CC2)ccn2cncc12)C1CCCCC1 (single isomer, unassigned) [Example B107a]
Hi, I'm comparing two records. Which one has the lower IC50, P or Q ? # respond with the chosen item's label
Q

P. OC(CCc1cccn2cncc12)C1CCCCC1 (stereo not drawn)
Q. CC(=O)N1CCCC(C(O)c2c(C3CC3)ccn3cncc23)C1 (single isomer, unassigned) [Example B133b]
R. CC(C)c1ccn2cncc2c1C(O)C1CCCCC1 (single isomer, unassigned) [Example B106a]
S. OC(c1c(C2CC2)ccn2cncc12)C1CCOCC1 (stereo not drawn)
Please put the entries in order of rising IC50. List the labels, following the order given in the request.
R, S, Q, P

I. OC(c1c([C@H]2C[C@H]2F)ccn2cncc12)C1CCCCC1 (relative stereo) [Example B126a]
II. OC(CC1CCCCC1)c1c(C2CC2)ccn2cncc12 (single isomer, unassigned) [Example B110b]
Pick one: I or II . Which one has the lower reported IC50? Answer format: the label of the selected item.
II
(II: 4.9 nM, I: 340 nM)

----------
Biological target: cellular IDO1 in HeLa cells (Homo sapiens)
Construct: endogenous in cells; host or cells: HeLa cells (American Type Tissue Culture Collection), induced with human recombinant IFN-γ
Test: HeLa cell-based IDO1 Kyn (kynurenine) production assay
Settings: Table 2, 8-substituted imidazo[1,5-a]pyridines, IFN-γ 100 ng/mL, 48 hours
pEC50: −log10 of the molar value.
endpoint.label: pEC50

Known results for molecules:
molecule: OC(c1c(C2CC2)ccn2cncc12)C1CCC(c2ccccc2)CC1 (single isomer, unassigned) [Example B143b]
endpoint.label: pEC50
readout.value: 5.06
--
molecule: OC(c1c([C@H]2C[C@H]2F)ccn2cncc12)C1CCCCC1 (relative stereo) [Example B126a]
endpoint.label: pEC50
readout.value: 6.03

A. OC(CC1CCCCC1)c1c(C2CC2)ccn2cncc12 (single isomer, unassigned) [Example B110a]
B. Cc1ccn2cncc2c1C(O)CC1CCCCC1 (stereo not drawn)
C. OC(c1c(C2CC2)ccn2cncc12)C1CCCCC1 (single isomer, unassigned) [Example B107a]
// smallest pEC50 at index 0, largest at the end Form field (ranking): labels in requested order.
B, A, C

----------
Biological target: Recombinant IDO1 (Homo sapiens, UniProt P14902)
Construct: His tag (N); made in house; host or cells: E. coli
Sequence (P14902 whole entry): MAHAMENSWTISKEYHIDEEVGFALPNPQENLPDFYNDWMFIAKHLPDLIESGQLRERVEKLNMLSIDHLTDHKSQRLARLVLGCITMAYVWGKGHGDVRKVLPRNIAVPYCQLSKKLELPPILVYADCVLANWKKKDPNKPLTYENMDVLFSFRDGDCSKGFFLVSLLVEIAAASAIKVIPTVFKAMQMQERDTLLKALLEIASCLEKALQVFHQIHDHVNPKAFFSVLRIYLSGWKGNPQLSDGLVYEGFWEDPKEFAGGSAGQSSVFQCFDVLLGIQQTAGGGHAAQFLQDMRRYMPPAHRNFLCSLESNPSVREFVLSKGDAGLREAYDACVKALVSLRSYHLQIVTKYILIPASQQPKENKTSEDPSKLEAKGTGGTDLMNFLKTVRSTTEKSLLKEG
Experiment: IDO1 enzymatic assay
Format: biochemical
Details: Table 2, 8-substituted imidazo[1,5-a]pyridines; 50 nM IDO1, 1.3 mM D-tryptophan; read-out: Enzyme IC50 (nM) IDO1
endpoint.label: IC50 (nM)

Here's what some known entries look like.
compound: OC(CC1CCCCC1)c1cc(Cl)cn2cncc12 (centres unmarked) [Example B013]
assayed.target: Recombinant IDO1 (Homo sapiens, UniProt P14902)
IC50 (nM): 240
//
compound: OC(c1cccn2cncc12)C1CCCCCC1 (centres unmarked) [Example B005]
assayed.target: Recombinant IDO1 (Homo sapiens, UniProt P14902)
IC50 (nM): 990
//
compound: CC(C)c1ccn2cncc2c1C(O)C1CCC(O[Si](C)(C)C(C)(C)C)CC1 (centres unmarked) [Example B120]
assayed.target: Recombinant IDO1 (Homo sapiens, UniProt P14902)
IC50 (nM): 790

A. C=CC(O)c1c(C2CC2)ccn2cncc12 (centres unmarked) [Example B115]
B. CC(O)(CC1CCCCC1)c1cccn2cncc12 (centres unmarked) [Example B009]
Choose between A and B : whose measured IC50 value is numerically larger? Indicate your choice by writing its label.
B
(B: 18000 nM, A: 120 nM)

----------
Target: Recombinant TDO (Homo sapiens)
Construct: His tag (C); made in house; host or cells: E. coli
Sequence (P48775 whole entry): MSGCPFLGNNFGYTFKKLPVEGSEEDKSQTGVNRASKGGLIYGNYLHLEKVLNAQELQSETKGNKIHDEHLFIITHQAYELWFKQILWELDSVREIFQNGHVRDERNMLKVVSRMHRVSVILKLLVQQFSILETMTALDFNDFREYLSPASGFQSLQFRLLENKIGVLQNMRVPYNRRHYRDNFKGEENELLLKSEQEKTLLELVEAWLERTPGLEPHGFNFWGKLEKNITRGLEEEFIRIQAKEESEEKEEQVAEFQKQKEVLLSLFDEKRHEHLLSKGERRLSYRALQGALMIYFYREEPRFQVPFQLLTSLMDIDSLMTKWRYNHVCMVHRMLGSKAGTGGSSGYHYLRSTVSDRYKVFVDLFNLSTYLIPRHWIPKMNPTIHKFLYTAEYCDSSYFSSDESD
Assay: TDO enzymatic assay
Type: biochemical
Settings: Table 1, 5-substituted imidazo[1,5-a]pyridines; 100 nM TDO, 0.5 mM L-tryptophan; read-out: Enzyme IC50 (nM) TDO
Method: Recombinant TDO was overexpressed and purified from E. coli cells with a C-terminal His tag. TDO enzymatic assay was performed using the same methodology as IDO1 enzymatic assay except that 100 nM TDO and 0.5 mM L-tryptophan (Km concentration) were used in the TDO assay.
endpoint.label: IC50 (nM)

compound: OC(CC1CCCCC1)c1c(C(F)(F)F)ccc2cncn12 (stereo not shown) [Example A127]
assayed.target: Recombinant TDO (Homo sapiens)
IC50, nM: 3500

I. OC(c1cc(C(F)(F)F)cc2cncn12)C1CCCC1 (stereo not shown) [Example A110]
II. OC(c1c(Br)ccc2cncn12)C1CCCCC1 (single isomer, unassigned) [Example A118a]
III. OC(c1cc(Br)cc2cncn12)C1CCCC1 (stereo not shown) [Example A112]
Hey, can you sort those compounds up there by IC50, smallest first? Use the labels to give the ranking in the order requested.
III, I, II
(III: 48 nM, I: 120 nM, II: 1700 nM)

1. OC(c1c(Cl)c(F)cc2cncn12)C1CCCCC1 (stereo not shown) [Example A151]
2. COc1cc(C(O)C2CCCCC2)n2cncc2c1Cl (stereo not shown) [Example A153]
1 or 2 : whose IC50 is greater? State the label of the item chosen.
2
(2: 1800 nM, 1: 600 nM)

----------
Molecular target: Recombinant IDO1 (Homo sapiens, UniProt P14902)
Construct: His tag (N); made in house; host or cells: E. coli
Assay: IDO1 enzymatic assay
Format: biochemical
Settings: selectivity examples; read-out: enzymatic IC50 value to IDO1
endpoint.label: IC50 (µM)

compound: OC(CC1CCCCC1)c1c(Cl)ccc2cncn12 (stereo not drawn) [Example A117]
IC50 (µM): 0.028

A. OC(CC1CCCCC1)c1c(Cl)ccn2cncc12 (stereo not drawn) [Example B105]
B. OC(CC1CCCCC1)c1c(Br)ccc2cncn12 (stereo not drawn) [Example A119]
# min-compare on IC50 between A and B Returns: label corresponding to the selected item.
B
